# Tested on: BT-549
# Experiment description: NCI tumour cell line growth inhibition, 48 h
The source made the active and inactive calls. Rule as the data show it: active = GI50 up to about 1.1 µM and inactive = higher.
Classes to choose from: active, inactive

Compound	Classification
COc1c(O)cc(/C=C/c2cc(O)cc3c2[C@@]2(C(=O)O3)c3c(O)cc(O)cc3OC2c2cccc(O)c2)cc1O (stereo partly specified)	inactive
O=C1Nc2ccc(Br)cc2/C1=N/Nc1ccccc1[N+](=O)[O-]	inactive
COc1ccc(-c2cc(C3CC3)nc(SCC(=O)O)c2C#N)cc1	inactive
O=C(NCP(=O)(O)O)c1cccnc1 [(NICOTINAMIDOMETHYL)PHOSPHONIC ACID]	inactive
CCNCCNc1c2ccccc2nc2ccccc12	inactive

Fill in: this test's call for CC(=O)Nc1nc(NC(C)=O)c2nc(CO)[nH]c2n1 is ___ inactive

Check C#CCN(C(=O)C(F)(F)F)C(/C=C\C(=O)OC)(C(=O)OCC)C(=O)OCC too. inactive

Also, CCCCSC1=N/C(=C\c2ccco2)C(Cl)=N1 please. inactive

Follow-up entry: CN(C)CCC(=O)N1C/C(=C/c2ccccc2)C(=O)/C(=C\c2ccccc2)C1 active

// same read-out, input: COc1ccc(/N=C2\C(=N/c3ccc(OC)cc3)N(c3ccc(N(C)C)cc3)C(=S)N2c2ccc(OC)cc2)cc1 inactive

Try this compound next: C=C(C)C1CC[C@@](C)(O)[C@H](C#N)C1 (stereo partly specified) inactive

Item: O=C(O)C1C2C=CC(O2)C1C(=O)NCc1cccnc1 (stereo unspecified) inactive

Then what about the compound COc1ccc(NC(=O)C2=C(SC)C(=O)N=C2N)cc1 ? inactive

And what about the compound CCOC(=O)Cc1cnc(NC(NC(=O)CC)(C(F)(F)F)C(F)(F)F)s1 ? inactive

// next record CC1CC[C@@]2(OC1)OC1C[C@H]3[C@@H]4CC=C5C[C@@H](OC6OC(CO)C(OC7OC(CO)C(O)C(O)C7O)C(O)C6OC6OC(C)C(O)C(O)C6O)CC[C@]5(C)[C@H]4CC[C@]3(C)C1[C@@H]2C (stereo partly specified) active

Ok, now CCOC(=O)c1nc2cc(C(F)(F)F)ccc2nc1Nc1ccc(C(=O)NC(C(=O)OCC)C(=O)OCC)cc1 inactive

Entry CCOC(=O)C(O)(NC(=O)c1ccccc1F)C(F)(F)F (stereo unspecified) please inactive

These entries and their values trace back to ChEMBL document CHEMBL1201862.
